Test: Phase I study CXR1002-001: plasma pharmacokinetics (LC-MS/MS)
Format: in vivo, human
Conditions: human, plasma, oral, 200 mg, Patient 008 Dose 200 mg; 506 hr; read-out: Concentration
ENDPOINT: concentration at 506 h (µM)
Answers are plain numbers, in µM.

Given "O=C(O)C(F)(F)C(F)(F)C(F)(F)C(F)(F)C(F)(F)C(F)(F)C(F)(F)F" , state its recorded concentration at 506 h.
282

---

Experiment: Phase I study CXR1002-001: plasma pharmacokinetics (LC-MS/MS)
Assay type: in vivo, human
Conditions: human, plasma, oral, 750 mg, Patient 027, 750 mg, person, plasma, 676 hr; read-out: Concentration
ENDPOINT: concentration at 676 h (µM)
Numbers only, in µM.

Given "O=C(O)C(F)(F)C(F)(F)C(F)(F)C(F)(F)C(F)(F)C(F)(F)C(F)(F)F" , state its recorded concentration at 676 h.
757

---

Assay: Phase I study CXR1002-001: plasma pharmacokinetics (LC-MS/MS)
Assay type: in vivo, human
Settings: human, plasma, po, 1000 mg, Patient 042, 1000 mg weekly oral dose, Time 192 hr (Day 9); read-out: Concentration (plasma level)
ENDPOINT: concentration at 192 hr (µM)
One number for each entry, in µM.

Given O=C(O)C(F)(F)C(F)(F)C(F)(F)C(F)(F)C(F)(F)C(F)(F)C(F)(F)F [CXR1002] , state its recorded concentration at 192 hr.
502

---

Test: Phase I study CXR1002-001: plasma pharmacokinetics (LC-MS/MS)
Assay type: in vivo, human
Details: human, plasma, oral, 50 mg, Patient 003 Dose 50 mg; 48 hr
ENDPOINT: concentration at 48 h
I'd appreciate it if you included the unit after the number.

Given "O=C(O)C(F)(F)C(F)(F)C(F)(F)C(F)(F)C(F)(F)C(F)(F)C(F)(F)F" , state its recorded concentration at 48 h.
18.1 µM

---

Assay: Phase I study CXR1002-001: plasma pharmacokinetics (LC-MS/MS)
Format: in vivo, human
Settings: human, plasma, oral, 50 mg, Patient 004 Dose 50 mg; 676 hr; read-out: Concentration
ENDPOINT: concentration at 676 hr (µM)
One number for each entry, in µM.

Given O=C(O)C(F)(F)C(F)(F)C(F)(F)C(F)(F)C(F)(F)C(F)(F)C(F)(F)F [CXR1002] , state its recorded concentration at 676 hr.
56.7

---

Assay: Phase I study CXR1002-001: plasma pharmacokinetics (LC-MS/MS)
Format: in vivo, human
Conditions: human, plasma, oral, 300 mg, Patient 011 Dose 300 mg; 842 hr; read-out: Concentration
Text: PK samples, PD (fasting) samples, blood glucose, and blood triglyceride samples, were taken over a 6-week period. Dose limiting toxicity (DLT) will be based on the toxicity assessments over the first 3-week period of the repeat dosing schedule. […]
ENDPOINT: concentration at 842 h (µM)
Give bare numbers, in µM.

Given "O=C(O)C(F)(F)C(F)(F)C(F)(F)C(F)(F)C(F)(F)C(F)(F)C(F)(F)F" , state its recorded concentration at 842 h.
384

---

Experiment: Phase I study CXR1002-001: plasma pharmacokinetics (LC-MS/MS)
Assay type: in vivo, human
Conditions: female, human, plasma, oral, Female, plasma, 168 hr (Day 8); read-out: Concentration
ENDPOINT: concentration at 168 h (µM)
Numbers only, in µM.

Given O=C(O)C(F)(F)C(F)(F)C(F)(F)C(F)(F)C(F)(F)C(F)(F)C(F)(F)F [CXR1002] , state its recorded concentration at 168 h.
146

This collection of values is drawn from patent US20130029928A1.
